The following compounds are listed with their measured LD50 values.
assay: in vivo; settings: mouse, ip
Enter your answer as a number in mg/kg; do not include the unit.

Field: example entries. Status: answers known.
>  <COMPOUND>
CCN(CC(=O)Nc1c(C)cccc1C)C(C)(C)CC

>  <LD50 (mg/kg)>
81

$$$$
>  <COMPOUND>
CCCN(CC(=O)Nc1c(C)cccc1C)C(C)(C)CC

>  <LD50 (mg/kg)>
39

$$$$
>  <COMPOUND>
CCCCN1CCCCC1C(=O)Nc1c(C)cccc1C (stereo not shown) [X, N-n-butylpipecolyl-2,6-xylidide, reference compound]

>  <LD50 (mg/kg)>
40

$$$$

Query compound follows.
Qu. # input compound: Cc1cccc(C)c1NC(=O)CNC(C)(C)C [A, 2-(tert.-butylamino)-2',6'-acetoxylidide] ; wanted: its LD50
Ans. 119
